Data provenance is PubChem BioAssay.

- tgt: Focal adhesion kinase 1 (Homo sapiens) (UniProt Q05397)
- Sequence (Q05397 whole entry, looked up): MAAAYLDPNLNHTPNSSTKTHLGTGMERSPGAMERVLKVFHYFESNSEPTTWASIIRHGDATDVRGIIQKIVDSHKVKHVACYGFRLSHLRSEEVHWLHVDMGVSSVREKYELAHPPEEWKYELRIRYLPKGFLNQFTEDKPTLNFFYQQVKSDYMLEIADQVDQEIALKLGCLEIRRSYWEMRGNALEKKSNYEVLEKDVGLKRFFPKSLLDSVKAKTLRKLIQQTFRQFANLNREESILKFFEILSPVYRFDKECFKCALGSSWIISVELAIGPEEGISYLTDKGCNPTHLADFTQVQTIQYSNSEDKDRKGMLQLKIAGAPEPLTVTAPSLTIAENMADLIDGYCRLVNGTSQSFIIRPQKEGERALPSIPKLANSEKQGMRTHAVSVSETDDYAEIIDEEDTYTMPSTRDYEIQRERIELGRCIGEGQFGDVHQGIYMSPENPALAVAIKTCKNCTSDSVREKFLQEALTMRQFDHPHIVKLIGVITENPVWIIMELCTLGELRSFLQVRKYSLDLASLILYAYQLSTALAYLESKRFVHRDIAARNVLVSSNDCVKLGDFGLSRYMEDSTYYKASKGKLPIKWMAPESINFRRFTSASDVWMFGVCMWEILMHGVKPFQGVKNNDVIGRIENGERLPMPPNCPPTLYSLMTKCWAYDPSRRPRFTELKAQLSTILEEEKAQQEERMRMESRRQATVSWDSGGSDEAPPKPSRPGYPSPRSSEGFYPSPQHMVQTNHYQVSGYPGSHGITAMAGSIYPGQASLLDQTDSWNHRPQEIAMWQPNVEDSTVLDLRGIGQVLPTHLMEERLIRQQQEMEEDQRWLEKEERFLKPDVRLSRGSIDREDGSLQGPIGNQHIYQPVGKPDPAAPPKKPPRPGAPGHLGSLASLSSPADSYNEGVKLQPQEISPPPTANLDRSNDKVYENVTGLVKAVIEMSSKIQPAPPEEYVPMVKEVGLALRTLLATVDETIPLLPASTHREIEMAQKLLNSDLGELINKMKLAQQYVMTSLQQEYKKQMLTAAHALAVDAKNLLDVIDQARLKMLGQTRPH
- protocol: PTK2 protein binding on printed compound slides – biochemical, small-molecule microarray, 635/667 nm fluorescence, BSA, DTT, primary screen (AID 1130);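 also: composite of spot emission at 667 nm and signal to noise over triplicate slides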
- testParameters: 635 nm fluorescence, higher = more signal
# binarize composite z-score: threshold 0.4 inclusive, high side true (1), low side false (0)

Q: Please tell me: is the compound C=C(COC)/C(=C/C[C@H](OC(C)=O)c1ccccc1OCCO)c1cc(C(=O)OC)ccc1OC at or over 0.4 in terms of composite z-score?
Result: true (1)

Q: Please tell me: is the compound CCOc1cc(C(O)C2C=CC3C(=O)N(c4ccccc4)C(=O)C3N2Nc2ccccc2F)ccc1O (stereo not given) at or over 0.4 in terms of composite z-score?
Result: false (0)

Q: Please tell me: is the compound CCOC(=O)C1=CC[C@@H](c2ccccc2)N(S(=O)(=O)c2ccc(C)cc2)[C@H]1c1ccccc1I at or over 0.4 in terms of composite z-score?
Result: true (1)

Q: Please tell me: is the compound C=CC[C@@]12N=C(c3ccc(OCCCO)cc3)O[C@@H]1c1ccccc1N(CCC)C2=O at or over 0.4 in terms of composite z-score?
Result: false (0)

Q: Please tell me: is the compound COCCOC(=O)N1C(=O)[C@@]2(c3ccccc31)[C@H](C(=O)N1CCN(c3ncccn3)CC1)[C@H]1C(=O)O[C@H](c3ccccc3)[C@H](c3ccccc3)N1[C@@H]2c1ccccc1OCCO at or over 0.4 in terms of composite z-score?
Result: false (0)

Q: Please tell me: is the compound O=C1N(CCS(=O)(=O)c2ccccc2)c2ccccc2C[C@]12N=C(c1ccc(OCCCO)cc1)O[C@@H]2c1ccccc1 at or over 0.4 in terms of composite z-score?
Result: false (0)

Q: Please tell me: is the compound COCCOC(=O)N1C(=O)[C@@]2(c3cc(C#Cc4ccc(OC)cc4)ccc31)[C@H](c1ccc(OCCO)cc1)N1[C@H](c3ccccc3)[C@H](c3ccccc3)OC(=O)[C@H]1[C@@H]2C(=O)NC[C@H](O)c1ccccc1 at or over 0.4 in terms of composite z-score?
Result: true (1)

Q: Please tell me: is the compound COC(=O)C1=CC(CCCO)=CC(c2cccs2)N(Cc2cc3c(cc2Br)OCO3)C=C1C(=O)OC (stereo not given) at or over 0.4 in terms of composite z-score?
Result: true (1)

Q: Please tell me: is the compound C=CCOC(=O)[C@@H]1[C@H]2C(=O)O[C@H](c3ccccc3)[C@H](c3ccccc3)N2[C@H](c2ccc(OCCOC(=O)[C@H]3C[C@H]4C(=O)N[C@@H](CCCCN(C)C)C(=O)N4[C@H]3c3ccc(O)cc3)cc2)[C@@]12C(=O)Nc1ccc(I)cc12 at or over 0.4 in terms of composite z-score?
Result: true (1)

Q: Please tell me: is the compound CCCNC(=O)[C@@]1(Sc2ccc(C)cc2)CC(=O)N(Cc2ccccc2Cl)[C@@H]1c1ccc(CO)cc1I at or over 0.4 in terms of composite z-score?
Result: false (0)

Q: Please tell me: is the compound CCCCCC1=C2CNC(CC(C)C)(C(=O)OC)C=C2C(C)C1=O (stereo not given) at or over 0.4 in terms of composite z-score?
Result: true (1)

Q: Please tell me: is the compound CCOC(=O)C1=CCC(c2cc3ccccc3[nH]2)N(CCN2CC(C(=O)OCC)=CCC2c2cc3ccccc3[nH]2)C1 (stereo not given) at or over 0.4 in terms of composite z-score?
Result: false (0)

Q: Please tell me: is the compound CCCCC(=C=CC[C@H](O)c1ccc(CO)o1)CCO at or over 0.4 in terms of composite z-score?
Result: false (0)

Q: Please tell me: is the compound CC(C)[Si](C#CCCc1ccccc1)(O[C@H](c1ccccc1)c1cn(Cc2ccccc2)nn1)C(C)C at or over 0.4 in terms of composite z-score?
Result: false (0)

Q: Please tell me: is the compound O=C1O[C@H](Cc2ccccc2)[C@@H]2[C@H]3C=CCCC=C3CN2[C@H]1Cc1ccc(O)cc1 at or over 0.4 in terms of composite z-score?
Result: false (0)

----------
- protocol: COS7 lysate on small-molecule microarray, probe aHis, 635 nm (AID 1123);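 also: z-score combines 667nm fluorescence intensity with signal-to-noise per printed compound spot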
- testParameters: COS7 cell lysate, fluorescence, higher = more signal
Would you kindly list composite z-score for each of these compounds?
Please give only the number in your answer, with no unit.

Q: Given the compound C=CCC(OC(C)=O)[C@@H]1[C@@H](N(Cc2ccc(-c3cccc(C(F)(F)F)c3)o2)C(=O)c2ccc(-c3ccccc3)cc2)c2cc(OCCCO)ccc2N1C(=O)c1ccc2ccccc2c1 (stereo partly drawn) , what is its reported composite z-score?
Result: 0.234

Q: Given the compound C=CCOC(=O)[C@@H]1[C@H]2C(=O)O[C@H](c3ccccc3)[C@H](c3ccccc3)N2[C@H](c2ccc(OCCOC(=O)[C@H]3C[C@H]4C(=O)NCC(=O)N4[C@H]3c3cccc(OCCO)c3)cc2)[C@@]12C(=O)Nc1ccc(I)cc12 , what is its reported composite z-score?
Result: 1.96

Q: Given the compound COC(=O)[C@H](Cc1ccccc1)N1CC2=CCCC=C[C@@H]2[C@H]1[C@H](O)Cc1ccccc1 , what is its reported composite z-score?
Result: 0.25

Q: Given the compound CCOC(=O)c1cn(C[C@H](Cc2ccccc2)NC(=O)N[C@H](CO)CCc2oc(C(C)=O)c(C(=O)OC)c2C(=O)OC)nn1 , what is its reported composite z-score?
Result: 1.57

Q: Given the compound C=C(CCCC)/C(=C/C[C@H](OC(C)=O)c1cccc(OCCO)c1)c1cnc2ccccc2c1 , what is its reported composite z-score?
Result: -0.66

Q: Given the compound C=C(/C(=C/C[C@@H](OC(C)=O)c1cccc(OCCO)c1)c1cnc2ccccc2c1)C(C)C , what is its reported composite z-score?
Result: 1.26

Q: Given the compound COc1ccc(C(=O)Nc2cccc(CN3C(=O)[C@]4(O[C@H](CC(=O)N5Cc6ccccc6C[C@H]5CO)[C@@H]([Si](C)(C)c5ccc(OC)cc5)[C@@H]4C)c4ccccc43)c2)cc1 , what is its reported composite z-score?
Result: 0.458

Q: Given the compound O=C(NC1CC1)[C@@H]1c2ccccc2C(=O)N(Cc2cc(C(F)(F)F)cc(C(F)(F)F)c2)[C@H]1c1ccc(CO)cc1 , what is its reported composite z-score?
Result: 1.29

Q: Given the compound COC(=O)c1cccc([C@H]2OC(=CC(=O)OC(C)C)C[C@@H](c3cccc(C(=O)OC)c3)O2)c1 , what is its reported composite z-score?
Result: 1.78

Q: Given the compound C=CCNC(=O)[C@H]1[C@@H]2C(=O)O[C@@H](c3ccccc3)[C@@H](c3ccccc3)N2[C@@H](c2ccc(OCCO)cc2)[C@]12C(=O)Nc1ccc(C#CC3(O)CCCCCC3)cc12 , what is its reported composite z-score?
Result: 1.29

Q: Given the compound COCCCNC(=O)[C@@]1(CCS(=O)(=O)c2ccccc2)COC(c2ccc(OCCCO)cc2)=N1 , what is its reported composite z-score?
Result: 3.36

Q: Given the compound CC(=O)OCC1C2CC[C@H]3C(OCc4ccc(F)cc4C(F)(F)F)OC[C@]4(C)[C@H]3C2=C(CN4C(=O)OC(C)(C)C)[C@H](C)C1COC(C)=O (stereo partly drawn) , what is its reported composite z-score?
Result: 0.826

Q: Given the compound CN(C)CCCC[C@@H]1NC(=O)[C@@H]2C[C@H](C(=O)NCCCCCN)[C@H](c3cccc(OCCO)c3)N2C1=O , what is its reported composite z-score?
Result: 0.482

----------
Would you kindly list z-score for each of these compounds?
- protocol: budding yeast growth changes without added modifier – OD600, strain BY4716, 24 h, basal condition, primary screen (AID 1173)
- testParameters: S. cerevisiae BY4716 growth, OD600, 24 h; higher = more signal, called active from +8 up or from −8 down
Please give only the number in your answer, with no unit.

Q: Given the compound COc1ccc([Si](C)(C)[C@H]2[C@H](CCO)O[C@@]3(C(=O)N(Cc4cccc(N(C=O)c5ccccc5)c4)c4ccccc43)[C@@H]2C)cc1 , what is its reported z-score?
Result: 1.27

Q: Given the compound COCCOC(=O)N1C(=O)[C@@]2(c3cc(C#CCC(C(=O)OC)C(=O)OC)ccc31)[C@H](c1ccc(O)cc1)N1[C@H](c3ccccc3)[C@H](c3ccccc3)OC(=O)[C@H]1[C@@H]2C(=O)Nc1nc2ccccc2s1 , what is its reported z-score?
Result: -0.146

Q: Given the compound COC(=O)[C@@]1(Cc2ccc(OC)cc2)[C@H]2c3cc(C(=O)N4CCCC4)n(CCn4cc([N+](=O)[O-])nc4C)c3C[C@H]2CN1C(=O)c1ccccc1 , what is its reported z-score?
Result: 0.477

Q: Given the compound COc1ccc([Si](C)(C)[C@H]2[C@H](CC(=O)N3CCC[C@H]3CO)O[C@@]3(C(=O)N(Cc4ccc(N5CCCCC5=O)cc4)c4ccccc43)[C@@H]2C)cc1 , what is its reported z-score?
Result: -0.0356

Q: Given the compound O=C(NCC(O)CO)[C@@]1(CCS(=O)(=O)c2ccccc2)N=C(c2ccc(OCCCO)cc2)O[C@H]1c1ccccc1 (stereo partly drawn) , what is its reported z-score?
Result: -0.386

Q: Given the compound C=C(CCCC)/C(=C/C[C@H](OC(C)=O)c1cccc(OCCO)c1)c1cnc2ccccc2c1 , what is its reported z-score?
Result: 1.13

Q: Given the compound Cc1ccc(S[C@]2(C(=O)NCCCN(C)C)CC(=O)N(Cc3ccccc3C(F)(F)F)[C@@H]2c2ccc(CO)cc2I)cc1 , what is its reported z-score?
Result: -4.57

Q: Given the compound CN(C)CCCC[C@@H]1NC(=O)[C@@H]2C[C@H](C(=O)NCCCCCN)[C@H](c3cccc(OCCO)c3)N2C1=O , what is its reported z-score?
Result: -0.985

Q: Given the compound COC(=O)[C@@]1(Cc2ccccc2)N=C(c2ccc(OCCCO)cc2)O[C@H]1c1ccccc1CN=[N+]=[N-] , what is its reported z-score?
Result: 1.24

Q: Given the compound COc1ccc([Si](C)(C)[C@H]2[C@H](CC(=O)N3Cc4ccccc4C[C@H]3CO)O[C@@]3(C(=O)N(c4ccccc4)c4ccccc43)[C@@H]2C)cc1 , what is its reported z-score?
Result: -1.89

Q: Given the compound CC(C)C(=C=CC[C@H](O)c1ccccc1OCCO)C[C@H](O)COCc1ccccc1 , what is its reported z-score?
Result: -1.07

Q: Given the compound C=CCC(OC(C)=O)[C@@H]1[C@@H](N(Cc2cccc3ccccc23)C(=O)c2ccc(-c3ccccc3)cc2)c2cc(OCCCO)ccc2N1C(=O)Cc1ccc2ccccc2c1 (stereo partly drawn) , what is its reported z-score?
Result: 0.716

Q: Given the compound COC(=O)[C@@]1(Cc2ccccc2)[C@H]2c3cc(C(=O)N4CCCC4)n(Cc4ccc(OC)c(OC)c4)c3C[C@H]2CN1C(=O)c1ccccc1 , what is its reported z-score?
Result: 1.58

Q: Given the compound COc1ccc(C(O)C2C=CC3C(=O)N(c4ccccc4)C(=O)C3N2Nc2ccc([N+](=O)[O-])cc2)c2ccccc12 (stereo not drawn) , what is its reported z-score?
Result: 0.0244

Q: Given the compound CCCCC(=C=CC[C@H](O)c1ccc(CO)o1)CCO , what is its reported z-score?
Result: -0.976

Q: Given the compound CN(C)CCCNC(=O)[C@@]1(Cc2ccccc2I)c2ccccc2C(=O)N(C2CCCCC2)[C@H]1c1ccc(CO)cc1 , what is its reported z-score?
Result: -8.03

Q: Given the compound O=C1O[C@@H](c2ccccc2)[C@@H](c2ccccc2)N2[C@@H](c3ccc(OCCO)cc3)[C@]3(C(=O)Nc4ccc(C#CC5(O)CCCCCC5)cc43)[C@@H](C(=O)Nc3nc4ccccc4s3)[C@H]12 , what is its reported z-score?
Result: 1.28

Q: Given the compound COCC(=C=CC[C@H](O)c1ccccc1OCCO)C[C@H](O)COCc1ccccc1 , what is its reported z-score?
Result: -2.91

Q: Given the compound CCCCCCc1nc(Cc2cc(OC)c(OC)c(OC)c2)cc2c1[Si](C(C)C)(C(C)C)O[C@H]2c1ccccc1 , what is its reported z-score?
Result: 1.12

Q: Given the compound C=CCNC(=O)[C@H]1[C@@H]2C(=O)O[C@@H](c3ccccc3)[C@@H](c3ccccc3)N2[C@@H](c2ccc(OCCO)cc2)[C@]12C(=O)Nc1ccccc12 , what is its reported z-score?
Result: 0.997

Q: Given the compound CC(C)C(O)C1C=CC2C(=O)NC(=O)C2N1Nc1ccccn1 (stereo not drawn) , what is its reported z-score?
Result: 0.754

Q: Given the compound C=CCNC(=O)[C@H]1[C@@H]2C(=O)O[C@@H](c3ccccc3)[C@@H](c3ccccc3)N2[C@@H](c2ccccc2OCCO)[C@]12C(=O)N(C(=O)OCCOC)c1ccc(C#Cc3ccc(OC)cc3)cc12 , what is its reported z-score?
Result: 1.19

Q: Given the compound CCCNC(=O)[C@@]1(Sc2ccc(C)cc2)CC(=O)N(Cc2ccccc2Cl)[C@@H]1c1ccc(CO)cc1I , what is its reported z-score?
Result: -4.16

Q: Given the compound C=CC[C@@]12N=C(c3ccc(OCCCO)cc3)O[C@@H]1c1ccccc1N(CCC)C2=O , what is its reported z-score?
Result: -2.22

Q: Given the compound COC(=O)[C@@]1(Cc2ccc(OC)cc2)[C@H]2c3cc(C(=O)N4CCCC4)n(Cc4ccc(C(F)(F)F)nc4)c3C[C@H]2CN1C(=O)c1ccccc1 , what is its reported z-score?
Result: 1.37

Q: Given the compound CN(C)C(=O)[C@]1(Cc2ccccc2)N=C(c2ccc(OCCCO)cc2)O[C@@H]1c1ccccc1CN=[N+]=[N-] , what is its reported z-score?
Result: -1.3

Q: Given the compound CCCC[C@H]1C[C@@H]1[C@@H]1N(C(C)=O)[C@H](c2cccc(OC)c2)CC12CC2 , what is its reported z-score?
Result: -6.41

Q: Given the compound CCCC=C(CCC)[C@@H](NC(=O)c1ccc(C(F)(F)F)cc1)c1ccc(C(F)(F)F)cc1 , what is its reported z-score?
Result: 2.01
